- Target System: IDH2-R140Q (Homo sapiens, UniProt P48735, R140Q)
- Protocol Details: Fluorescent determination of IDH2-R140Q cell activity (2-HG in U87MGR140Q cells)
- Condition Parameters: 72 hours incubation, read-out: IC50 (2-HG inhibition)
Quantity: IC50 (nM)

A. [2H]C1([2H])CCC(c2nc(NOC(C)(C)C)nc(Nc3ccnc(C(F)(F)F)c3)n2)=C(F)C1O (stereo not drawn)
B. OC1CCCCC(c2nc(NC3CC(F)(F)C3)nc(NC3CC(F)(F)C3)n2)=C1F (stereo not drawn) [Compound 20]
C. C[C@@H](Nc1nc(NC2CCC2)nc(C2=CC(O)CCC2)n1)C(F)(F)F (mixture of isomers)
Descending sort on IC50 required. Could you list the labels in the order requested? B, C, A
(B: 232 nM, C: 92 nM, A: 57 nM)

P. C[C@@H](Nc1nc(N[C@@H]2CCC[C@@H]2O)nc(C2=CC(O)CCC2)n1)C(F)(F)F (stereo partly drawn)
Q. [2H]C1([2H])CCC(c2nc(NC(C)C)nc(NC3CC(F)(F)C3)n2)=C(F)C1O (stereo not drawn)
R. [2H]C1([2H])CCC(c2nc(NC(C)C)nc(NC3CC(F)(F)C3)n2)=C(F)C1([2H])O (racemic)
S. C[C@@H](Nc1nc(N[C@H](C)C(F)(F)F)nc(C2=C(F)C(O)CCC2)n1)C1CC1 (mixture of isomers)
// ranking: key=IC50, reverse=True Could you list the labels in the order requested? P, S, R, Q

---

- Target System: IDH2-R140Q (Homo sapiens, UniProt P48735, R140Q)
- Protocol Details: Fluorescent determination of IDH2-R140Q cell activity (2-HG in U87MGR140Q cells)
- Condition Parameters: 72 hours incubation, read-out: IC50 (2-HG inhibition)
pIC50: −log10 of the molar value.
Quantity: pIC50

Examples from the recorded data:
Please give the measured pIC50 for this molecule: C[C@@H](Nc1nc(N[C@H](C)C(F)(F)F)nc(C2=C(F)C(O)C(F)CC2)n1)C(F)(F)F (stereo partly shown) [Compound 267] 5.88

Please give the measured pIC50 for this molecule: C[C@H](Nc1nc(N[C@H](C)C(F)(F)F)nc(C2=C(F)C(O)C(F)(F)CC2)n1)C(F)(F)F (stereo partly shown) 6.81

Please give the measured pIC50 for this molecule: C[C@@H](Nc1nc(NCC2CC2)nc(C2=C(F)C(O)C(F)CC2)n1)C(F)(F)F (single isomer, unassigned) [Compound 226] 6.44

A. C[C@H](Nc1nc(N[C@H](C)C(F)(F)F)nc(C2=C(F)C(O)CCC2)n1)C(F)(F)F (mixture of isomers)
B. C[C@H](Nc1nc(N[C@H](C)C(F)(F)F)nc(C2=C(F)C(O)CCC2)n1)c1ccccc1 (mixture of isomers)
C. CC(C)Nc1nc(N[C@H](C)C(F)(F)F)nc(C2=CCCC(F)C2)n1 (mixture of isomers)
D. C[C@@H](Nc1nc(NCC2CC2)nc(C2=C(F)C(O)C(F)CC2)n1)C(F)(F)F (single isomer, unassigned) [Compound 225]
// ranking: key=pIC50, reverse=True Could you list the labels in the order requested? D, B, A, C
(D: 7.44, B: 6.85, A: 6.55, C: 5.72)

---

- Target System: IDH2-R140Q (Homo sapiens, UniProt P48735, R140Q)
- Sequence (P48735 40-452 R140Q): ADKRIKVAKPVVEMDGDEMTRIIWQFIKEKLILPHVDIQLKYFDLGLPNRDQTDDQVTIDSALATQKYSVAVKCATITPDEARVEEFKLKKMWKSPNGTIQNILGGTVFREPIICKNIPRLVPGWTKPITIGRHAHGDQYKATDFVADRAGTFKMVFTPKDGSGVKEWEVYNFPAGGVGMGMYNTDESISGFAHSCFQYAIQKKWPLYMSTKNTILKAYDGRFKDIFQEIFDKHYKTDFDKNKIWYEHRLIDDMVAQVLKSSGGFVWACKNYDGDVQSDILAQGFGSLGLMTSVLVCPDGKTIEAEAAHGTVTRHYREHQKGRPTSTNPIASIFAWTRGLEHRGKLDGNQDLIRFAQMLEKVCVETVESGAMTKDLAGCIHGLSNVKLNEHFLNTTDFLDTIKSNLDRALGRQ
- Protocol Details: Fluorescent determination of IDH2-R140Q cell activity (2-HG in U87MGR140Q cells)
- Condition Parameters: 72 hours incubation, read-out: IC50 (2-HG inhibition)
pIC50: −log10 of the molar value.
Quantity: pIC50

Examples from the recorded data:
Please give the measured pIC50 for this compound: C[C@@H](Nc1nc(N[C@H](C)C(F)(F)F)nc(C2=C(F)C(=O)C(F)(F)CC2)n1)C(F)(F)F [Compound 296] 6.37

Please give the measured pIC50 for this compound: C[C@@H](Nc1nc(C2=C(F)C(O)C(F)(F)CC2)nc(N2CC(F)(F)C2)n1)C(F)(F)F (stereo partly shown) [Compound 243] 5.93

Please give the measured pIC50 for this compound: C[C@H](Nc1nc(N[C@@H](C)C(F)(F)F)nc(C2=C(F)C(O)CCC2)n1)C(F)(F)F (stereo partly shown) [Compound 69] 6.76

Please give the measured pIC50 for this compound: CC(C)Nc1nc(Nc2ccc3nscc3c2)nc(C2=C(F)C(O)CCC2)n1 (racemic) [Compound 229] 6.42

a. CC(C)Nc1nc(N[C@H](C)C(F)(F)F)nc(C2=C(F)C(O)C(F)CC2)n1 (single isomer, unassigned) [Compound 96]
b. C[C@@H](Nc1nc(NOC(C)(C)C)nc(C2=C(F)C(O)C(F)(F)CC2)n1)C(F)(F)F (mixture of isomers) [Compound 294]
c. C[C@@H](Nc1nc(N[C@H](C)C(F)(F)F)nc(C2=C(F)C(O)C(F)(F)CC2)n1)C(F)(F)F (single isomer, unassigned) [Compound 197]
// ranking: key=pIC50, reverse=True Could you list the labels in the order requested? c, b, a

---

- Target System: IDH1-R132H (Homo sapiens, UniProt O75874, R132H)
- Sequence (O75874 whole entry R132H): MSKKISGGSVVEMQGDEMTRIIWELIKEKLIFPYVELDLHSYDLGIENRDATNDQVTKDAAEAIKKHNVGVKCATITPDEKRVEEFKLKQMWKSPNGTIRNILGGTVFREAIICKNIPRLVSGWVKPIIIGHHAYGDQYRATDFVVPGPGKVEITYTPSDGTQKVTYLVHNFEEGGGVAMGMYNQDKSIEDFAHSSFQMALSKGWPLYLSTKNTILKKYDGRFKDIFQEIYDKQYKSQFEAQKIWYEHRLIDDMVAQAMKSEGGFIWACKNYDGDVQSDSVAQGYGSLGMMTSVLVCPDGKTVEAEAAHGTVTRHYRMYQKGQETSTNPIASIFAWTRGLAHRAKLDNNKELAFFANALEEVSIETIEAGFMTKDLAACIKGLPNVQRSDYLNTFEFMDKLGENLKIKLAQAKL
- Protocol Details: Fluorescent determination of IDH1-R132H cell activity (2-HG in U87MGR132H cells)
- Condition Parameters: 2-HG inhibition in U87MGR132H cells transfected with IDH1-R132H mutant plasmid
pIC50: −log10 of the molar value.
Quantity: pIC50

Examples from the recorded data:
Please give the measured pIC50 for this compound: C[C@@H](Nc1nc(NC(CF)CF)nc(C2=C(F)C(O)CCC2)n1)C(F)(F)F (some centres unmarked) 5.79

Please give the measured pIC50 for this compound: C[C@@H](Nc1nc(N[C@H](C)C(F)(F)F)nc(C2=CC(O)CCC2)n1)C(F)(F)F (mixture of isomers) 6.54

Please give the measured pIC50 for this compound: C[C@@H](Nc1nc(N[C@H](C)C(F)(F)F)nc(C2=C(F)C(O)CCCC2)n1)C(F)(F)F (mixture of isomers) 6.63

Please give the measured pIC50 for this compound: C[C@@H](Nc1nc(NCC2CC2)nc(C2=C(F)C(O)CCC2)n1)C(F)(F)F (some centres unmarked) 5.57

Please give the measured pIC50 for this compound: C[C@H](Nc1nc(NCC(F)(F)F)nc(C2=C(F)C(O)C(F)(F)CC2)n1)C(F)(F)F (mixture of isomers) 5.54

P. C[C@H](Nc1nc(N[C@H](C)C(F)(F)F)nc(C2=C(F)C(O)C(F)(F)CC2)n1)C(F)(F)F (some centres unmarked)
Q. CC(Nc1nc(N[C@H](C)C(F)(F)F)nc(C2=C(F)C(O)CCC2)n1)C(C)(F)F (mixture of isomers)
R. C[C@@H](Nc1nc(N[C@H](C)C(F)(F)F)nc(C2=C(F)C(O)C3(CC2)CC3)n1)C(F)(F)F (mixture of isomers)
// ranking: key=pIC50, reverse=True Could you list the labels in the order requested? Q, P, R
(Q: 6.31, P: 5.99, R: 5.49)

1. [2H]C1([2H])CCC(c2nc(NC3CC(F)(F)C3)nc(N[C@@H](C)C(F)(F)F)n2)=C(F)C1O (some centres unmarked)
2. C[C@@H](Nc1nc(N[C@H](C)C(F)(F)F)nc(C2=C(F)C(=O)C(F)CC2)n1)C(F)(F)F (mixture of isomers)
3. CC(C)Nc1nc(NC2CC(F)(F)C2)nc(C2=C(F)C(O)CCC2)n1 (centres unmarked)
// ranking: key=pIC50, reverse=True Could you list the labels in the order requested? 1, 2, 3
(1: 6.57, 2: 5.45, 3: 5.22)

---

- Target System: IDH2-R140Q (Homo sapiens, UniProt P48735, R140Q)
- Protocol Details: Fluorescent determination of IDH2-R140Q cell activity (2-HG in U87MGR140Q cells)
- Condition Parameters: 72 hours incubation, read-out: IC50 (2-HG inhibition)
pIC50: −log10 of the molar value.
Quantity: pIC50

Please give the measured pIC50 for this compound: CCONc1nc(Nc2ccnc(C(F)(F)F)c2)nc(C2=C(F)C(O)C(F)(F)CC2)n1 (stereo not shown) 7.20

1. CC(C)C(=O)Nc1nc(N[C@H](C)C(F)(F)F)nc(C2=CC(O)CCC2)n1 (mixture of isomers)
2. CC(C)Nc1nc(N[C@H](C)C(F)(F)F)nc(C2=CCCC(O)C2)n1 (mixture of isomers)
3. CC(C)Nc1nc(NC2CC(F)(F)C2)nc(C2=C(F)C(O)CCC2)n1 (stereo not shown) [Compound 28]
// ranking: key=pIC50, reverse=True Could you list the labels in the order requested? 3, 1, 2
(3: 6.91, 1: 5.81, 2: 5.56)
